- System name: HIV-1 JR-CSF Env P299A (HIV-1 JR-CSF) (UniProt P20871)
- Test description: cell-based or functional assay
Value kind: Fold IC50 increase relative to wild-type

# Fold IC50 increase relative to wild-type (binder: PGT-126 (antibody, V domains shown) VH: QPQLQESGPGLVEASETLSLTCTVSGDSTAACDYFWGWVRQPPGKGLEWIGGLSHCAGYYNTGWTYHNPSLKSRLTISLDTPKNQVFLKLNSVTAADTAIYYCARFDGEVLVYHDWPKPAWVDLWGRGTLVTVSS VL: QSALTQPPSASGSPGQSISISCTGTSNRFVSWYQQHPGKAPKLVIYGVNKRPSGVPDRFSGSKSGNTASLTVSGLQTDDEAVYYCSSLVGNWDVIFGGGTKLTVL ) is 0.2 fold

# Fold IC50 increase relative to wild-type (binder: PGT-128 (antibody, V domains shown) VH: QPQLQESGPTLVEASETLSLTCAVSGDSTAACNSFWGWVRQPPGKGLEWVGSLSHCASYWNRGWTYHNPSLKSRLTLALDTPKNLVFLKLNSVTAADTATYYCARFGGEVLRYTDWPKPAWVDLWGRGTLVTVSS VL: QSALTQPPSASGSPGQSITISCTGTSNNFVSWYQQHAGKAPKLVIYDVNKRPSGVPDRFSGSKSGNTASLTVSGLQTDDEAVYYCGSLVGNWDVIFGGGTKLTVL ) is 1.2 fold

# Fold IC50 increase relative to wild-type (binder: PGT-123 (antibody, V domains shown) VH: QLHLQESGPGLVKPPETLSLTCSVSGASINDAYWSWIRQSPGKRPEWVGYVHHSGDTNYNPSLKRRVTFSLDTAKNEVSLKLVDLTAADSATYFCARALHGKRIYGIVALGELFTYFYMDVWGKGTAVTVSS VL: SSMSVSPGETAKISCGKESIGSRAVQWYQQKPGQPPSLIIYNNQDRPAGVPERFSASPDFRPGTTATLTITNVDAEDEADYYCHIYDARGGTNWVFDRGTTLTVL ) is 0.7 fold

# Fold IC50 increase relative to wild-type (binder: PGT-130 (antibody, V domains shown) VH: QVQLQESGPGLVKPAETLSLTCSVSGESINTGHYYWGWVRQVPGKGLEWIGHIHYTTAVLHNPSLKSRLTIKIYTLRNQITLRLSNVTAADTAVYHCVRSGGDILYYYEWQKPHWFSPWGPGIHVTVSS VL: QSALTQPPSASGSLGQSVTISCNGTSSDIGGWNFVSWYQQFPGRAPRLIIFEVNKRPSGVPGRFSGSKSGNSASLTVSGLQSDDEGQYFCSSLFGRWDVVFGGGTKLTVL ) is 0.8 fold
